TEST_DESCRIPTION: Protein binding in mouse plasma assessed as unbound fraction
Type: ADME, cell-free
MEASUREMENT_NAME: fraction unbound

>>> observed_measurement("CC(C)(C)[C@@H](CO)NC(=O)c1nn(-c2c[n+]([O-])ccn2)c2c1C[C@@H]1C[C@H]21")
"0.1 to 0.2"

* * *

MEASURED_TARGET: Cannabinoid receptor 2 (Homo sapiens, UniProt P34972)
Sequence (P34972 whole entry): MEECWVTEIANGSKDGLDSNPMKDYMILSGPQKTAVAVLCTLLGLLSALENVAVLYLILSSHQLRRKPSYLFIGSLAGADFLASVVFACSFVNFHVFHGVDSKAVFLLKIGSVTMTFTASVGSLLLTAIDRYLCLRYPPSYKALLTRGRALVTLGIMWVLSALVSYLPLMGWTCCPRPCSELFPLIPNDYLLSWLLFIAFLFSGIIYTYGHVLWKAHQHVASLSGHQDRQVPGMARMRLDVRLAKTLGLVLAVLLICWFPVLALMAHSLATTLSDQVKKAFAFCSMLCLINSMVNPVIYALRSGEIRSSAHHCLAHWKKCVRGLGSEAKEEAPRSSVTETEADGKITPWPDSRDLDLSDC
TEST_DESCRIPTION: Agonist activity at recombinant human CB2 receptor expressed in HEK293 cells assessed as increase in beta arrestin recruitment measured after 2 to 3 hrs by PathHunter assay relative to CP55940
Type: functional, cell-based
MEASUREMENT_NAME: Emax (%)

>>> observed_measurement("O=C(NC1(C(F)(F)F)CCC1)c1nn(-c2c[n+]([O-])ccn2)c2c1C[C@@H]1C[C@H]21")
115
>>> observed_measurement("CC(C)(C)[C@@H](CO)NC(=O)c1nn(-c2cnccn2)c2c1C[C@@H]1C[C@H]21")
107
>>> observed_measurement("CC(C)(C)[C@@H](CO)NC(=O)c1nn(-c2c[n+]([O-])ccn2)c2c1C[C@@H]1C[C@H]21 [OLORINAB]")
106
>>> observed_measurement("CC(C)[C@@H](CO)NC(=O)c1nn(-c2c[n+]([O-])ccn2)c2c1C[C@@H]1C[C@H]21")
103
>>> observed_measurement("CC1(NC(=O)c2nn(-c3c[n+]([O-])ccn3)c3c2C[C@@H]2C[C@H]32)CC1")
102
>>> observed_measurement("O=C(N[C@H](CO)c1ccccc1)c1nn(-c2c[n+]([O-])ccn2)c2c1C[C@@H]1C[C@H]21")
96
